Target: M1
Assay: ELISA on coated antigen, column M1
recorded-endpoint: absorbance at 490 nm

binder	absorbance at 490 nm
PDL1-22B10 (antibody, V domains shown, Only FR/CDR pieces are tied to the clone) VH: QVQLVQSGAEVKKPGSSVKVSCRASGGTFSSYAISWVRQAPGQGLEWMGRIIPILGIANYAQKFQGRVTITADKSTSTAYMELSSLRSEDTAVYYCARDFVLSGSATVFDPWGQGTLVTVSS VL: QFVLTQPPSVSGAPGQRVTISCTGSSTNIGAGYDVHWYQQLPGKAPKVVIYGNSNRPSGVLDRFSASKSATSASLAITGLQAEDEADYYCQSYDSSLSGYVFGTGTKVTVL	2.3

Let us move to another entry and its absorbance at 490 nm.
Value of measured absorbance at 490 nm for the entry PDL1-30B1 (antibody, V domains shown, Only FR/CDR pieces are tied to the clone) VH: QVQLVESGGGVVQPGRSLRLSCAASGFTFSSYAMHWVRQGPGKGLEWVAVISYDGSNEFYADSVKGRFTISRDNSKNTLYLQMNSLRAEDTAVYYCARGDYNGVYMDVWGQGTTVTVSS VL: DIVMTQTPLSLSVTPGQPASISCKSSQSLLHSDGKTYLYWYLQKPGQSPQLLIYEVSKRFSGVPDRFSGSGSGTDFTLKIGRVEAEDVGVYYCMQGLHLPYTFGQGTKLEIK : 2.6
